assay info: Selectivity index, ratio of IC50 for rat L6 cells to IC50 for Trypanosoma cruzi Tulahuen C2C4 amastigotes infected in rat L6 cells
Type: toxicity, cell-based
measurement conditions: read-out: Ratio IC50
quantity: selectivity ratio
// no unit string in output, number only

Exam item: What does the data say about its selectivity ratio? Entry: O=C(Nc1cc(Cl)nc(Cl)c1)O[C@@H](Cn1ccnc1)c1ccc(Cl)cc1
Marked response: 158

Exam item: # selectivity ratio lookup, item O=C(Nc1ccnc(Cl)c1)OCCN1CCOCC1
Marked response: 1.3

Exam item: Fill in: selectivity ratio of O=C(O[C@H](Cn1ccnc1)c1ccccc1)c1ccc(-c2ccccc2)cc1 is ___
Marked response: 4800

Exam item: Form field: reported selectivity ratio of O=C(COc1ccccc1)OC(Cn1ccnc1)c1ccc(F)cc1 (racemic)
Marked response: 7.5

Exam item: # lookup: selectivity ratio of CC(C)c1ccc(NC(=O)OC(Cn2ccnc2)c2ccc(F)cc2)cc1 (racemic)
Marked response: 3360

Exam item: Please give the measured selectivity ratio for this molecule: O=C(OC(Cn1ccnc1)c1ccccc1)c1ccc(-c2ccccc2)cc1 (racemic)
Marked response: 1580

Exam item: Endpoint output: selectivity ratio of O=C(Nc1cc(Cl)nc(Cl)c1)OC(Cn1ccnc1)c1ccc(Cl)cc1 (racemic) . Value?
Marked response: 749

Exam item: Can you look up the measured selectivity ratio of CC(C)c1ccc(NC(=O)O[C@@H](Cn2ccnc2)c2ccc(Cl)cc2)cc1 for me?
Marked response: 125

Exam item: Look at this molecule and give its reported selectivity ratio. O=C(O[C@@H](Cn1ccnc1)c1ccccc1)c1ccc(-c2ccccc2)cc1
Marked response: 143

====

assay info: Selectivity index, ratio of IC50 for rat L6 cells to IC50 for Trypanosoma cruzi Tulahuen C2C4 amastigotes infected in rat L6 cells
Format: toxicity, cell-based
measurement conditions: read-out: Ratio IC50
Could you please mark satisfied for values of selectivity ratio below 2000 and not satisfied for values at or above it?

Exam item: selectivity ratio under 2000? Item: O=C(Nc1cc(Cl)nc(Cl)c1)OCCN1CCOCC1
Marked response: satisfied

Exam item: Criterion: selectivity ratio strictly below 2000. Is it met by CC(C)c1ccc(NC(=O)O[C@H](Cn2ccnc2)c2ccc(Cl)cc2)cc1 ?
Marked response: not satisfied

Exam item: Just wondering, is selectivity ratio of Cc1ncc([N+](=O)[O-])n1CCOC(=O)Nc1ccncc1Br below 2000?
Marked response: satisfied

Exam item: # strict comparison: is reported selectivity ratio < 2000? input = O=C(Nc1cc(Cl)nc(Cl)c1)O[C@H](Cn1ccnc1)c1ccc(Cl)cc1
Marked response: satisfied

Exam item: Could you please tell me whether selectivity ratio recorded for CC(C)c1ccc(NC(=O)OC(Cn2ccnc2)c2ccc(Cl)cc2)cc1 (racemic) is less than 2000?
Marked response: not satisfied
